Cited source: patent US20140121236A1

- System: DM1 myoblasts
- procedureSummary: Toxicity by shape and size of the nuclei of DM1 myoblasts
- Type: cell-based, human
- Parameters: key: −: Nontoxic; +: 10% alterations in nuclei shape and size; ++: 20-30% alterations in nuclei shape and size; +++: 40-50% alterations in nuclei shape and size; ++++: 60% alterations in nuclei shape and size; +++++: very sick, almost no surviving cells
- experimentalConditions: Table 2, 10 μM, 4 days
observationType: Toxicity: Toxic

[
  {
    "smilesNotation": "CCCCCCc1cc2cc(C(=O)Nc3cccc(Br)c3)c(=O)oc2cc1O",
    "experimentalSystem": "DM1 myoblasts",
    "observationType": "Toxicity: Toxic",
    "assayValue": "+++++"
  },
  {
    "smilesNotation": "CCCCCCc1cc2cc(C(=O)Nc3ccc(Cl)c(Cl)c3)c(=O)oc2cc1O",
    "experimentalSystem": "DM1 myoblasts",
    "observationType": "Toxicity: Toxic",
    "assayValue": "+++++"
  }
]

====

- System: DM1 myoblasts
- procedureSummary: Toxicity by shape and size of the nuclei of DM1 myoblasts
- Type: cell-based, human
- Set-up: key: −: Nontoxic; +: 10% alterations in nuclei shape and size; ++: 20-30% alterations in nuclei shape and size; +++: 40-50% alterations in nuclei shape and size; ++++: 60% alterations in nuclei shape and size; +++++: very sick, almost no surviving cells
- experimentalConditions: Table 4, 10 μM, 4 days
observationType: Toxicity: Toxic

[
  {
    "compound": "CCc1cc2c(CN3CCN(S(=O)(=O)Cc4ccccc4)CC3)cc(=O)oc2cc1O [RCN-020]",
    "experimentalSystem": "DM1 myoblasts",
    "observationType": "Toxicity: Toxic",
    "assayValue": "−"
  },
  {
    "compound": "CCCCCCc1cc2cc(-c3csc(-c4nc(-c5cc6cc(CCCCCC)c(O)cc6oc5=O)cs4)n3)c(=O)oc2cc1O [RCN-012]",
    "experimentalSystem": "DM1 myoblasts",
    "observationType": "Toxicity: Toxic",
    "assayValue": "−"
  },
  {
    "compound": "CCCCCCc1cc2cc(-c3cn4ccccc4n3)c(=O)oc2cc1O [RCN-011]",
    "experimentalSystem": "DM1 myoblasts",
    "observationType": "Toxicity: Toxic",
    "assayValue": "−"
  }
]
